# testSystem: T1, Aβ-derived diffusible ligands (ADDLs), soluble oligomers of synthetic Aβ1-42 (UniProt P05067 672-713)
# T1 construct: domain: Aβ1-42; number of copies is not fixed; also called synthetic ADDLs; Aβ oligomers
# assayRemarks: ELISA; IgG2
endpointLabel: EC50 (nM)
Write down the numeric answer in nM and omit the unit.

Answered examples (3):
binder	EC50 / nM
antibody 19.3 N33T (antibody, IgG2, V domains shown, also called 19.3T33) VH: EVQLVESGGGLVQPGGSLRLSCAASGFTFSSFGMHWVRQAPGKGLEWVAYISRGSSTIYYADTVKGRFTISRDNAKNSLYLQMNSLRAEDTAVYYCARGITTALDYWGQGTLVTVSS VL: DVVMTQSPLSLPVTPGEPASISCRSSQSIVHSTGNTYLEWYLQKPGQSPQLLIYKASNRFSGVPDRFSGSGSGTDFTLKISRVEAEDVGVYYCFQGSRLGPSFGQGTKLEIL	3.1
antibody 19.3 N33S (antibody, IgG2, V domains shown, also called 19.3S33) VH: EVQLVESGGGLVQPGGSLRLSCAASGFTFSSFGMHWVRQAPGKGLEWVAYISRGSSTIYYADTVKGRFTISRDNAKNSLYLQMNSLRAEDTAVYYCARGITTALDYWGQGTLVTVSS VL: DVVMTQSPLSLPVTPGEPASISCRSSQSIVHSSGNTYLEWYLQKPGQSPQLLIYKASNRFSGVPDRFSGSGSGTDFTLKISRVEAEDVGVYYCFQGSRLGPSFGQGTKLEIL	1.7
antibody 19.3 N33D (antibody, V domains shown, Made as a control) VH: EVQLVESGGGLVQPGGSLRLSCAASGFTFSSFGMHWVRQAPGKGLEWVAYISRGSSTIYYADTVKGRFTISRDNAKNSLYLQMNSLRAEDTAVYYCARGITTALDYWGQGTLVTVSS VL: DVVMTQSPLSLPVTPGEPASISCRSSQSIVHSDGNTYLEWYLQKPGQSPQLLIYKASNRFSGVPDRFSGSGSGTDFTLKISRVEAEDVGVYYCFQGSRLGPSFGQGTKLEIL	0.82

Kindly review the next binder as well.
input: What value of EC50 has been recorded for this entry: anti-ADDL antibody 19.3 (antibody, V domains shown, copies: 2 + 2) VH: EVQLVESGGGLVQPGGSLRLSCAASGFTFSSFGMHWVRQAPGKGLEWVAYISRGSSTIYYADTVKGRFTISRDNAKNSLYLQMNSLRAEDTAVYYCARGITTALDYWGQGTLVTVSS VL: DVVMTQSPLSLPVTPGEPASISCRSSQSIVHSNGNTYLEWYLQKPGQSPQLLIYKASNRFSGVPDRFSGSGSGTDFTLKISRVEAEDVGVYYCFQGSRLGPSFGQGTKLEIKR
output: 0.8
